# PROCEDURE DETAILS: in vitro
# RECORDED CONDITIONS: rat, liver microsomes
# Description: Metabolic stability in rat liver microsomes assessed as parent compound remaining measured after 15 min
REPORTED ENDPOINT: remaining at 0.25 h

>>> print(df.to_string())
                                   compound  result
0  O=C(O)Cc1ccccc1Nc1c(Cl)cccc1Cl [DICLOFENAC]   55.7%

###

# PROCEDURE DETAILS: in vitro
# RECORDED CONDITIONS: rat, liver microsomes
# Description: Metabolic stability in rat liver microsomes assessed as parent compound remaining measured after 30 min
REPORTED ENDPOINT: remaining at 0.5 h (%)

>>> print(df.to_string())
                    record_smiles  readout_number
0  O=C(O)Cc1ccccc1Nc1c(Cl)cccc1Cl            33.8

###

# Test system: NCI-N87
# PROCEDURE DETAILS: cells
# RECORDED CONDITIONS: Homo sapiens, NCI-N87, 48 h
# Description: Antiproliferative activity against human NCI-N87 cells assessed as inhibition of cell proliferation incubated for 48 hrs by MTT assay
pIC50: −log10 of the molar value.
REPORTED ENDPOINT: pIC50

In [3]: df
Out[3]:
                              record_smiles  target_system  reported_endpoint  readout_number
0  CNC(=O)c1ccccc1Nc1nc(Nc2ccc(N3CCOCC3)cc2OC)ncc1Cl        NCI-N87              pIC50            5.67

###

# System: NCI-H1975
# PROCEDURE DETAILS: cells
# RECORDED CONDITIONS: Homo sapiens, NCI-H1975, 48 h
# Description: Antiproliferative activity against human NCI-H1975 cells assessed as inhibition of cell proliferation incubated for 48 hrs by MTT assay
REPORTED ENDPOINT: IC50 (nM)

In [3]: df
Out[3]:
                              record_smiles  readout_number
0  CNC(=O)c1ccccc1Nc1nc(Nc2ccc(N3CCOCC3)cc2OC)ncc1Cl            1820

###

# PROCEDURE DETAILS: in vitro
# RECORDED CONDITIONS: rat, liver microsomes
# Description: Metabolic stability in rat liver microsomes assessed as parent compound remaining measured after 60 min
REPORTED ENDPOINT: remaining at 1 h (%)

>>> print(df.to_string())
                    record_smiles  unit  readout_number
0  O=C(O)Cc1ccccc1Nc1c(Cl)cccc1Cl     %            11.5

Values were extracted from ChEMBL document CHEMBL6114984.
